# study.system: ATR kinase, in the presence of partner proteins ATRIP, CLK2 and TopBP1 (Homo sapiens)
# Construct: in the presence of 4 nM full-length ATR, 40 nM full-length ATRIP
# Sequence (Q13535 whole entry): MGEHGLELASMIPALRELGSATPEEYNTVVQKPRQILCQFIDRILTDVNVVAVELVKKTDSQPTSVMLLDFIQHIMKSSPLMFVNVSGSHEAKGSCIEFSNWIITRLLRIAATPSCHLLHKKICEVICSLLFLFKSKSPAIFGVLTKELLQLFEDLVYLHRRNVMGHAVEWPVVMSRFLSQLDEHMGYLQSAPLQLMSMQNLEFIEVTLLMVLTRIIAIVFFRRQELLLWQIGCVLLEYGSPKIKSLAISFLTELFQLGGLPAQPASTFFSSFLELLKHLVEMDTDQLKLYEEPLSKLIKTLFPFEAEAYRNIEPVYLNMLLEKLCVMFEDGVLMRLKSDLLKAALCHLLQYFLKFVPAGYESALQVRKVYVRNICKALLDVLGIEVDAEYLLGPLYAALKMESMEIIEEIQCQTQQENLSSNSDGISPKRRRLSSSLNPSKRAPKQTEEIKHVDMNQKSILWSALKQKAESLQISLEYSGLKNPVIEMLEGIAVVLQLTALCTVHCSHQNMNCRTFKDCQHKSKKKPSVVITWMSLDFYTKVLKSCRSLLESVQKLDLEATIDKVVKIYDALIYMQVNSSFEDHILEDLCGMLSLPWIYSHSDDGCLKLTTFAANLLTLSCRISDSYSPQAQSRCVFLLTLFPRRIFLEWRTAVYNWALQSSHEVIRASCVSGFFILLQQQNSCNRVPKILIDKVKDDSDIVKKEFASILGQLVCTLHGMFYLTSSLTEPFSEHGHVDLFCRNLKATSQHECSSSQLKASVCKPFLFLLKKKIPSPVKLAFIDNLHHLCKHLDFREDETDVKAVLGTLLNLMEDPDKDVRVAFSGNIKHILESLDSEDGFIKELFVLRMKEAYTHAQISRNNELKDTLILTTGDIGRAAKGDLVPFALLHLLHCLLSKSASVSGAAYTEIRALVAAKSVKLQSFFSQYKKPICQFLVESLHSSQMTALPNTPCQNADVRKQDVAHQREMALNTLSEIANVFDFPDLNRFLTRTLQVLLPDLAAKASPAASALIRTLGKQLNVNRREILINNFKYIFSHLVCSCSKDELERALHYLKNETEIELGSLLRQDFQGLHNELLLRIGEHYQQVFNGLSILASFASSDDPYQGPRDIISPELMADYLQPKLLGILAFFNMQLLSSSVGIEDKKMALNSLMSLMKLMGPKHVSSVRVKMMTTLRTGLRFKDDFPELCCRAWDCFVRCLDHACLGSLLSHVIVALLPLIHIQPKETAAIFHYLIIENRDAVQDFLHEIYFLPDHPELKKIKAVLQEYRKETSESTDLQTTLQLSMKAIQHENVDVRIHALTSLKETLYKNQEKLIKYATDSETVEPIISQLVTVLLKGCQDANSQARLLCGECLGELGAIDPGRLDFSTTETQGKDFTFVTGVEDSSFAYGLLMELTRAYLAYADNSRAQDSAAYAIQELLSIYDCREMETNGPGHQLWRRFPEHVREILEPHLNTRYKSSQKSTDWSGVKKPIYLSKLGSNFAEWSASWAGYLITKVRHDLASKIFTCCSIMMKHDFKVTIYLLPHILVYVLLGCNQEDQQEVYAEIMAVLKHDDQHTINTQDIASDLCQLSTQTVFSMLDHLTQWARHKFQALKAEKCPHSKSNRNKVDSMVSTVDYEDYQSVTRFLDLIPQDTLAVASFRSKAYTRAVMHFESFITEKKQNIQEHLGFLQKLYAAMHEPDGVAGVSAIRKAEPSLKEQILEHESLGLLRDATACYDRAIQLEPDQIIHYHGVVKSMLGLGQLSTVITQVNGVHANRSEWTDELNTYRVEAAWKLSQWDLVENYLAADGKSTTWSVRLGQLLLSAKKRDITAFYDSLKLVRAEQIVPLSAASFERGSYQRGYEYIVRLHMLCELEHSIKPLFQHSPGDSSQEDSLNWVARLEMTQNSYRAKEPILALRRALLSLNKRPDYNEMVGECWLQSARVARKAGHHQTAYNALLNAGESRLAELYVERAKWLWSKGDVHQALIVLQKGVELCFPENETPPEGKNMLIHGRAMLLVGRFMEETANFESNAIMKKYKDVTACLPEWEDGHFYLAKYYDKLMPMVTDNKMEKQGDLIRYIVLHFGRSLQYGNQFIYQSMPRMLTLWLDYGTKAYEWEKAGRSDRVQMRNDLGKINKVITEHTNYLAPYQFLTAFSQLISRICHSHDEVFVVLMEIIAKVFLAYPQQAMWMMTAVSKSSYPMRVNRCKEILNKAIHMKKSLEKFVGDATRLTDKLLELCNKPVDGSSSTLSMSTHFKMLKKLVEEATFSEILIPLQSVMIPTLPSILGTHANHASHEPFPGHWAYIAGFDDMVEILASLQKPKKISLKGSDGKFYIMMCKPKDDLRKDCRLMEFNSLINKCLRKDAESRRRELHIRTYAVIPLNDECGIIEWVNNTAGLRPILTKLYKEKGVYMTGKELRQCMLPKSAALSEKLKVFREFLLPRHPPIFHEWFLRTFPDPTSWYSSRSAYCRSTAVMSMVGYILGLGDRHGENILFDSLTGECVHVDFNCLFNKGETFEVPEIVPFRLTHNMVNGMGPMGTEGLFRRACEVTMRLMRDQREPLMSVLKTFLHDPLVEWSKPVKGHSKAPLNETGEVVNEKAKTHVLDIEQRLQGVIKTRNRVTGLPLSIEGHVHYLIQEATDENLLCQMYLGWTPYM
# Sequence (Q8WXE1 whole entry partner): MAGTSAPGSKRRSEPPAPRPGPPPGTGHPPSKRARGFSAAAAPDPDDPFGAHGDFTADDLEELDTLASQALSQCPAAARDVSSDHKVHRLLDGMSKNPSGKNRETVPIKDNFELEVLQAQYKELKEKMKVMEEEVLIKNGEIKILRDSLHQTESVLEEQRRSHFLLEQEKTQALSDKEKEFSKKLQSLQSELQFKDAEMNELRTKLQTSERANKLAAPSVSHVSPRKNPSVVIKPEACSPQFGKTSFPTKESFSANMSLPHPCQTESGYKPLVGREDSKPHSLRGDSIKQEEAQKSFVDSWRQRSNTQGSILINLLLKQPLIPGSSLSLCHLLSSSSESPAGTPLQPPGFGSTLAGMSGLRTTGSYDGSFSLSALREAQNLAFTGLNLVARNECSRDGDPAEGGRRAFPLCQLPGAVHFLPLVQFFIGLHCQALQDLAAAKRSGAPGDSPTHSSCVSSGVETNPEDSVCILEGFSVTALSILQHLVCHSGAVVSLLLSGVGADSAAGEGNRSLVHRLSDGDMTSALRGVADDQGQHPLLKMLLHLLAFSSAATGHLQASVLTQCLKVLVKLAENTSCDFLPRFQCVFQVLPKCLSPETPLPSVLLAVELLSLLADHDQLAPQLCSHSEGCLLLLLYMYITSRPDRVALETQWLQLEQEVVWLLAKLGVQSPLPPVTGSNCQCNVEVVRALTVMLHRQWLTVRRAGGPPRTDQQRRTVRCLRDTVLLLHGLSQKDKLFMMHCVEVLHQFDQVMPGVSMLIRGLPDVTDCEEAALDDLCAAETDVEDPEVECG
# Sequence (Q92547 978-1192 partner limits assumed): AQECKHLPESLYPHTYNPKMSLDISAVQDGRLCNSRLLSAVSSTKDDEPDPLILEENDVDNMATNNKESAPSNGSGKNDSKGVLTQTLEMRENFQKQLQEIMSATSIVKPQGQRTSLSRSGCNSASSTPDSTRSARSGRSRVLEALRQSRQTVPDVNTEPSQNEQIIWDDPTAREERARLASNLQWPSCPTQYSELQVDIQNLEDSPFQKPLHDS
# protocol: ATR-Complex Inhibition Assay (radioactive-phosphate incorporation)
# details: Ki(app); 4 nM full-length ATR with ATRIP, CLK2 and TopBP1(A891-S1105), 10 μM ATP, 25° C.
pKi: −log10 of the molar value.
Listing of entries alongside the reported pKi.

Can you share its pKi? I mean this compound: CCOc1ccncc1NC(=O)c1c(N)nn2ccccc12
> 8.00

Can you share its pKi? I mean this compound: CN1CCN(C(=O)C2CCN(c3c(F)cncc3NC(=O)c3c(N)nn4ccccc34)CC2)CC1
> 8.00

Can you share its pKi? I mean this compound: CN1CCC(Oc2ccncc2NC(=O)c2c(N)nc3cccnn23)CC1
> 8.00

====

# study.system: ATR kinase (full-length ATR) (Homo sapiens, UniProt Q13535)
# Construct: Assays were carried out at 25° C. in the presence of 5 nM full-length ATR
# protocol: ATR Inhibition Assay (radioactive-phosphate incorporation)
# details: Ki(app); 5 nM full-length ATR, 10 μM ATP, 25° C.
value.type: Ki

> print(dat)
                                   compound  value.type  reported.measurement
1  CCOc1ccncc1NC(=O)c1c(N)nn2ccccc12 [I-B-1]          Ki         10 to 1000 nM
2  CN1CCN(C(=O)C2CCN(c3c(F)cncc3NC(=O)c3c(N)nn4ccccc34)CC2)CC1 [I-B-3]          Ki       1000 to 5000 nM
3  CN1CCN(C(=O)C2CCN(c3c(F)cncc3NC(=O)c3c(N)nc4cccnn34)CC2)CC1 [I-A-3]          Ki         10 to 1000 nM
4  CN1CCC(Oc2ccncc2NC(=O)c2c(N)nc3cccnn23)CC1 [I-A-1]          Ki         10 to 1000 nM

Can you share its Ki? I mean this compound: CN1CCC(Oc2ccncc2NC(=O)c2c(N)nc3ccc(C(F)(F)F)nn23)CC1 [I-A-2]
10 to 1000 nM
